# target_of_assay: SCD1 (Homo sapiens, UniProt O00767)
# Construct: host or cells: S. cerevisiae ole1Δ strain (W303 pdr1Δ pdr3Δ background), plasmid pRS316 with TDH3 promoter and CYC1 terminator
# Sequence (O00767 whole entry): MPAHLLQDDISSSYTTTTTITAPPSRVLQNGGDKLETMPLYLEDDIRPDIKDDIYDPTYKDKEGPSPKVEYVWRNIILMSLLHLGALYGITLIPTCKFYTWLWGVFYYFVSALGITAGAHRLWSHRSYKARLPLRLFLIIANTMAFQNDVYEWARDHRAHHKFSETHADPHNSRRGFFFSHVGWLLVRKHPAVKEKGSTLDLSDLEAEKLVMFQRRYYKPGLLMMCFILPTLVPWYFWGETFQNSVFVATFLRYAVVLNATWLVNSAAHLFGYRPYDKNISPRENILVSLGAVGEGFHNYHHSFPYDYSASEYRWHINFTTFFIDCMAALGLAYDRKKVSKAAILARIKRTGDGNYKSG
# test_method_notes: Growth inhibition of humanized yeast strain expressing SCD1 as sole desaturase
# Format: cell-based
# applied_conditions: growth inhibition of humanized yeast strain expressing human SCD1
readout_kind: IC50

Sample records with IC50:
[[record]]
compound = "Cc1nn(C)c2cc(-c3noc(N4CCN(C(=O)OC5(C)CC5)CC4)n3)ccc12"
observed_value = "> 45 µM"

[[record]]
compound = "COC(=O)N1CCN(c2nc(-c3ccc4cnn(C5COC5)c4c3)no2)CC1"
observed_value = "> 45 µM"

[[record]]
compound = "CNC(=O)c1nc(-c2ccc3c(C)nn(C)c3c2)no1"
observed_value = "> 45 µM"

[[record]]
compound = "CC(=O)N1CC(CC(=O)N2CCC(c3nc(-c4ccc5c(C)nn(C)c5c4)no3)CC2)C1"
observed_value = "> 45 µM"

[[record]]
compound = "CC(C)(C)OC(=O)N1CCC(c2nc(-c3ccc4cn(C5CCCOC5)nc4c3)no2)CC1 (centres unmarked)"
observed_value = "> 45 µM"

[[record]]
compound = "O=C(c1sccc1Cl)N1CCC(c2nc(-c3ccc4cnn(C5COC5)c4c3)no2)CC1"
observed_value = "> 45 µM"


Input: Query: IC50; subject: `O=C(c1ncccc1Cl)N1CCC(c2noc(-c3ccc4cnn(C5COC5)c4c3)n2)CC1`
Output: > 45 µM

Input: And `CC(=O)N1CC(n2ncc3ccc(-c4noc(C5CCN(C(=O)OC(C)(C)C)CC5)n4)cc32)C1` ?
Output: > 45 µM

---

# target_of_assay: SCD5 (Homo sapiens, UniProt Q86SK9)
# Construct: host or cells: S. cerevisiae ole1Δ strain (W303 pdr1Δ pdr3Δ background), plasmid pRS316 with TDH3 promoter and CYC1 terminator
# Sequence (Q86SK9 1-330): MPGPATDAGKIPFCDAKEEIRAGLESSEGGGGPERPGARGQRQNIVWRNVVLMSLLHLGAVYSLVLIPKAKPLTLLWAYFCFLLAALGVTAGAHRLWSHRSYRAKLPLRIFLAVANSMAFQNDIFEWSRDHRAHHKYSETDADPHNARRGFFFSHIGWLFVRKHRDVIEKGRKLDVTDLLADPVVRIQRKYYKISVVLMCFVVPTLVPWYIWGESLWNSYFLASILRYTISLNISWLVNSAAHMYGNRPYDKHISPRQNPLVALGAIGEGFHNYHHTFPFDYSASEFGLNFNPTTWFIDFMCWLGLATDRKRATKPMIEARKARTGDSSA
# test_method_notes: Growth inhibition of humanized yeast strain expressing SCD5 as sole desaturase
# Assay type: cell-based
# applied_conditions: humanized yeast strain expressing SCD5
readout_kind: IC50 (µM)
Give just the numeric value; µM need not be written.

[[record]]
compound = "O=C(NCC(=O)N1CCC(c2nc(-c3ccc(F)c(F)c3)no2)CC1)c1ccccc1"
unit_annotation = "µM"
observed_value = 30


Kindly review the next compound as well.
Input: Query: IC50; subject: Cc1nn(C)c2cc(-c3noc(C4CCN(C(=O)CNC(=O)c5cccc(F)c5)CC4(F)F)n3)ccc12 (stereo not shown)
Output: 2.74

---

# target_of_assay: SCD5 (Homo sapiens)
# Construct: host or cells: S. cerevisiae ole1Δ strain (W303 pdr1Δ pdr3Δ background), plasmid pRS316 with TDH3 promoter and CYC1 terminator
# test_method_notes: Growth inhibition of humanized yeast strain expressing SCD5 as sole desaturase
# Format: cell-based
# applied_conditions: humanized yeast strain, 40 h
# Method: Strain oleΔ (yeast ole1 deletion mutant) was constructed by deleting OLE1 with NAT-MX6 in BY4741, amplifying the deletion cassette from the genomic DNA of the resulting strain with primers flanking the ORF by 1000 bp upstream and downstream, transforming the resulting deletion cassette into W303 pdr1Δ pdr3Δ, and plating transformants on YPD media containing G418 (200 μg/mL) and nourseothricin ([…]) with 0.01% TWEEN®-20 and 0.5 mM oleic and palmitoleic acids. […]
Categorized via IC50: I = under 50 nM, II = from 50 nM up to 2000 nM, III = 2000 nM and over

Answered examples (10):
[[record]]
molecule = "CC(C)c1noc2ccc(-c3noc(C4CCN(C(=O)C5CCC5)CC4)n3)cc12"
target_of_assay = "SCD5 (Homo sapiens)"
class_name = "III"

[[record]]
molecule = "CC(C)(C)OC(=O)N1CCC(c2nc(-c3ccc4cnn([C@H]5C[C@@H](O)C5)c4c3)no2)CC1 [Compound 823]"
target_of_assay = "SCD5 (Homo sapiens)"
class_name = "II"

[[record]]
molecule = "CC(C)C(=O)N1CCC(c2noc(-c3ccnc(NC4COC4)c3)n2)CC1"
target_of_assay = "SCD5 (Homo sapiens)"
class_name = "II"

[[record]]
molecule = "CC(C)n1ncc2ccc(-c3nnc(C4CCN(C(=O)OC(C)(C)C)CC4)o3)cc21"
target_of_assay = "SCD5 (Homo sapiens)"
class_name = "II"

[[record]]
molecule = "COC(=O)N1CCC(c2nc(-c3ccc4cnn([C@H]5CCOC5)c4c3)no2)CC1"
target_of_assay = "SCD5 (Homo sapiens)"
class_name = "II"

[[record]]
molecule = "CC(C)(C)OC(=O)N1CCC(c2noc(-c3cc(Br)c4cnn(C5COC5)c4c3)n2)CC1"
target_of_assay = "SCD5 (Homo sapiens)"
class_name = "I"

[[record]]
molecule = "O=C(CC1CC1)N1CCN(c2noc(-c3ccc4cnn(C5COC5)c4c3)n2)CC(F)(F)C1"
target_of_assay = "SCD5 (Homo sapiens)"
class_name = "II"

[[record]]
molecule = "CC(C)(C)OC(=O)N1CCC(c2noc(-c3cc4c(Cl)nccn4c3)n2)CC1"
target_of_assay = "SCD5 (Homo sapiens)"
class_name = "II"

[[record]]
molecule = "COC(=O)N1CCC(c2nc(-c3ccnc(NC(C)C)c3)no2)CC1"
target_of_assay = "SCD5 (Homo sapiens)"
class_name = "III"

[[record]]
molecule = "CCC(=O)N1CCC(c2noc(-c3ccc4c(C)nn(C)c4c3)n2)CC1"
target_of_assay = "SCD5 (Homo sapiens)"
class_name = "III"


As a next step, examine the molecule that follows.
Input: Quick check: band for `CCC(=O)N1CCCN(c2noc(-c3ccc4cnn(C5COC5)c4c3)n2)CC1`
Output: I

---

# target_of_assay: SCD5 (Homo sapiens)
# Construct: host or cells: S. cerevisiae ole1Δ strain (W303 pdr1Δ pdr3Δ background), plasmid pRS316 with TDH3 promoter and CYC1 terminator
# test_method_notes: Growth inhibition of humanized yeast strain expressing SCD5 as sole desaturase
# Type: cell-based
# applied_conditions: humanized yeast strain, 40 h
readout_kind: pIC50
The scale used: pIC50 is minus the common logarithm of the concentration in molar units.

Sample records with pIC50:
[[record]]
compound = "O=C(CC1CC1)N1CCN(c2noc(-c3ccc4cnn(C5COC5)c4c3)n2)CC1"
readout_kind = "pIC50"
observed_value = 7.46

[[record]]
compound = "CC(=O)N1CC(n2ncc3ccc(-c4nc(N5CCN(C(=O)OC(C)(C)C)CC5)no4)cc32)C1"
readout_kind = "pIC50"
observed_value = 4.99

[[record]]
compound = "O=C(CC1CC1)N1CCCN(c2noc(-c3ccc4cnn(C5COC5)c4c3)n2)CC1"
readout_kind = "pIC50"
observed_value = 8.00


Input: Query: pIC50; subject: `CC(=O)N1CC(n2ncc3ccc(-c4noc(N5CCN(C(=O)OC(C)(C)C)CC5)n4)cc32)C1`
Output: 7.22

Input: And CC(C)n1ncc2ccc(-c3noc(C4CCN(C(=O)CC5CC5(F)F)CC4)n3)cc21 (centres unmarked) ?
Output: 5.37

---

# target_of_assay: SCD5 (Homo sapiens, UniProt Q86SK9)
# Construct: host or cells: S. cerevisiae ole1Δ strain (W303 pdr1Δ pdr3Δ background), plasmid pRS316 with TDH3 promoter and CYC1 terminator
# test_method_notes: Growth inhibition of humanized yeast strain expressing SCD5 as sole desaturase
# Assay type: cell-based
# applied_conditions: humanized yeast strain expressing SCD5
readout_kind: SCD5 % Max Inhibition (%)
Give just the numeric value; % need not be written.

Input: Request body: readout SCD5 % Max Inhibition, system SCD5 (Homo sapiens, UniProt Q86SK9), query CCOc1ncc(-c2noc(C3CCN(C(=O)CN4Cc5ccccc5C4=O)CC3)n2)cc1OC [Compound 131] . Return the value.
Output: 98.92

Input: And Cc1nn(C)c2cc(-c3noc(C4CCN(C(=O)N[C@@H]5C[C@@H]5c5ccccc5)CC4)n3)ccc12 [Compound 329] ?
Output: 13.4

---

# target_of_assay: SCD5 (Homo sapiens, UniProt Q86SK9)
# Construct: host or cells: S. cerevisiae ole1Δ strain (W303 pdr1Δ pdr3Δ background), plasmid pRS316 with TDH3 promoter and CYC1 terminator
# test_method_notes: Growth inhibition of humanized yeast strain expressing SCD5 as sole desaturase
# Assay type: cell-based
# applied_conditions: humanized yeast strain, 40 h
readout_kind: IC50 (µM)
Give just the numeric value; µM need not be written.

[[record]]
compound = "CC(C)(C)OC(=O)N1CCC(c2noc(-c3ccnc(OC4COC4)c3)n2)CC1"
observed_value = 0.327


Input: Query: IC50; subject: `O=C(OC1CC1)N1CCC(c2noc(-c3cc(F)c4cnn(C5COC5)c4c3)n2)CC1`
Output: 0.00303

Input: And `CC(C)n1ncc2ccc(-c3noc(C4CCN(C(=O)C56CC(C(F)(F)F)(C5)C6)CC4)n3)cc21` ?
Output: 4.95

Input: And `O=C(C1CC1)N1CCC(c2noc(-c3ccc4cnn(C5COC5)c4c3)n2)CC1` ?
Output: 0.01

Input: And `COC(=O)N1CCC(c2noc(-c3cc4c(cnn4C4COC4)cc3F)n2)CC1` ?
Output: 2.22

Input: And `CC(C)n1ncc2ccc(-c3nc(C4CCN(C(=O)CC5CC5)CC4)no3)cc21` ?
Output: 0.01

Input: And `CCC(=O)N1CCN(c2noc(-c3ccc4cnn(C5COC5)c4c3)n2)CC(F)(F)C1` ?
Output: 2.3

Input: And `COc1cc(-c2nc(C3CCN(C(=O)OC(C)(C)C)CC3)no2)cc2c1cnn2C1COC1` ?
Output: 1.03

Input: And `COC(=O)N1CCC(c2noc(-c3ccnc(N4CCOCC4)c3)n2)CC1` ?
Output: 2.96

Input: And `CC1(OC(=O)N2CCC(c3nnc(-c4ccc5cnn(C6COC6)c5c4)o3)CC2)CCC1` ?
Output: 0.045

Input: And CC(N1CCC(c2nc(-c3ccc4cnn(C5COC5)c4c3)no2)CC1)C(F)(F)F (stereo not drawn) ?
Output: 3.62

Input: And `CC(C)(C)OC(=O)N1CCC(c2nc(-c3cccc(C(=O)C4COC4)c3)no2)CC1` ?
Output: 1.59

Reference source for all entries: patent US11873298B2
